ASSAY COMMENT: High-temperature color development rate (A35/A23×100), temperature dependency
Format: physicochemical
REPORTED CONDITIONS: photochromic laminate by coating method
Text: • [1] Maximum Absorption Wavelength (λmax): The maximum absorption wavelength after color development, measured using a spectrophotometer (instantaneous multichannel photodetector MCPD3000) manufactured by Otsuka Electronics Co., Ltd. was used as an indicator for the color tone during the color development. • [2] […]
Measured A35/A23 *100 (%) values are reported for all entries that follow.

[
  {
    "COMPOUND": "COc1ccc(C2(c3ccc(N4CCOCC4)cc3)C=Cc3c4c(c5cc(N6CCCc7ccccc76)c(OC)cc5c3O2)-c2ccc(C)cc2C4(CCCC(F)(F)F)CCCC(F)(F)F)cc1 (centres unmarked) [Example 8 Formula (54)]",
    "A35/A23 *100 (%)": 64
  },
  {
    "COMPOUND": "COc1ccc(C2(c3ccc(OC)cc3)C=Cc3c4c(c5cc(N(C)c6ccc(F)cc6)c(OC)cc5c3O2)-c2ccccc2C4(C)C)cc1 [Example 4 Formula (34)]",
    "A35/A23 *100 (%)": 66
  },
  {
    "COMPOUND": "CCCC1(CCC)c2ccccc2-c2c1c1c(c3cc(OC)c(N(C)c4ccccc4)cc23)OC(c2ccc(OC)cc2)(c2ccc(N(c3ccccc3)c3ccccc3)cc2)C=C1 (centres unmarked) [Example 21 Formula (87)]",
    "A35/A23 *100 (%)": 69
  },
  {
    "COMPOUND": "CCCOc1ccc(C2(c3ccc(OC)cc3)C=Cc3c4c(c5cc(N(c6ccc(C(F)(F)F)cc6)c6ccc(C(F)(F)F)cc6)c(OC)cc5c3O2)-c2ccccc2C4(CCCCOC)CCCCOC)cc1 (centres unmarked) [Example 11 Formula (63)]",
    "A35/A23 *100 (%)": 61
  },
  {
    "COMPOUND": "CCC1(CC)CCC2(CC1)c1ccccc1-c1c2c2c(c3cc(OC)c(N(C)c4ccc(C(F)(F)F)cc4)cc13)OC(c1ccc(C)cc1)(c1ccc(OC)cc1)C=C2 (centres unmarked) [Example 9 Formula (57)]",
    "A35/A23 *100 (%)": 64
  },
  {
    "COMPOUND": "COc1ccc(C2(c3ccc(OC)cc3)C=Cc3c4c(c5cc(N6CCOc7ccccc76)c(OC)cc5c3O2)-c2ccccc2C4(C)C)cc1 [Example 19 Formula (83)]",
    "A35/A23 *100 (%)": 67
  },
  {
    "COMPOUND": "COc1ccc(C2(c3ccc(OC)cc3)C=Cc3c4c(c5cc(N(c6ccccc6)c6ccccc6)c(OC)cc5c3O2)-c2ccccc2C4(C)C)cc1 [Example 2 Formula (30)]",
    "A35/A23 *100 (%)": 70
  },
  {
    "COMPOUND": "CCCC1(CCC)c2ccccc2-c2c1c1c(c3cc(OC)c(N(c4ccccc4)c4ccccc4)cc23)OC(c2ccc(OC)cc2)(c2ccc(N3CCOCC3)cc2)C=C1 (centres unmarked) [Example 7 Formula (50)]",
    "A35/A23 *100 (%)": 62
  },
  {
    "COMPOUND": "CCCOc1ccc(C2(c3ccc(OCCC)cc3)C=Cc3c4c(c5cc(N(C)c6ccc(C)cc6)c(OC)cc5c3O2)-c2ccccc2C4(CCCCOC)CCCCOC)cc1 [Example 20 Formula (85)]",
    "A35/A23 *100 (%)": 70
  },
  {
    "COMPOUND": "CCCCN(c1ccccc1)c1cc2c3c(c4c(c2cc1OC)OC(c1ccc(OC)cc1)(c1ccc(OCCC)cc1)C=C4)C(CC)(CC)c1cc(OC(F)(F)F)ccc1-3 (centres unmarked) [Example 51 Formula (117)]",
    "A35/A23 *100 (%)": 62
  },
  {
    "COMPOUND": "CCCC1(CCC)c2cc(C)ccc2-c2c1c1c(c3cc(OC)c(N(C)c4ccccc4)cc23)OC(c2ccc(OC)cc2)(c2ccc(OC)cc2)C=C1 [Example 18 Formula (81)]",
    "A35/A23 *100 (%)": 70
  },
  {
    "COMPOUND": "COCCCCC1(CCCCOC)c2ccccc2-c2c1c1c(c3cc(C)c(N(C)c4ccccc4)cc23)OC(c2ccc(C)cc2)(c2ccc(OC)cc2)C=C1 (centres unmarked) [Example 5 Formula (43)]",
    "A35/A23 *100 (%)": 66
  },
  {
    "COMPOUND": "COc1ccc(C2(c3ccc(OC)cc3)C=Cc3c4c(c5cc(N(C)c6ccccc6)c(OC)cc5c3O2)-c2ccccc2C4(C)C)cc1 [Example 1 Formula (28)]",
    "A35/A23 *100 (%)": 69
  },
  {
    "COMPOUND": "COc1ccc(C2(c3ccc(N4CCOCC4)cc3)C=Cc3c4c(c5cc(N6CCOc7ccccc76)c(C)cc5c3O2)-c2ccc(OC)cc2C4(CCCCF)CCCCF)cc1 (centres unmarked) [Example 47 Formula (102)]",
    "A35/A23 *100 (%)": 66
  },
  {
    "COMPOUND": "CCCC1(CCC)c2ccccc2-c2c1c1c(c3cc(OC)c(N(C)c4ccccc4)cc23)OC(c2ccc(OC)cc2)(c2ccc(OC)cc2)C=C1 [Example 3 Formula (32)]",
    "A35/A23 *100 (%)": 68
  },
  {
    "COMPOUND": "COCCOCCOCCC1(CCOCCOCCOC)c2cc(-c3ccc(OC(C)C)cc3)ccc2-c2c1c1c(c3cc(OC)c(N(C)c4ccc(C(F)(F)F)cc4)cc23)OC(c2ccc(OC)cc2)(c2ccc(OC)cc2)C=C1 [Example 53 Formula (121)]",
    "A35/A23 *100 (%)": 66
  },
  {
    "COMPOUND": "CCCCCCC1(CCCCCC)c2cc(Oc3ccccc3)ccc2-c2c1c1c(c3cc(OC)c(N(c4ccccc4)c4ccc(C)cc4)cc23)OC(c2ccc(OC)cc2)(c2ccc(OCCCC)cc2)C=C1 (centres unmarked) [Example 52 Formula (119)]",
    "A35/A23 *100 (%)": 74
  },
  {
    "COMPOUND": "CCCCOc1ccc(C2(c3ccc(OC)cc3)C=Cc3c4c(c5cc(N(C)c6ccccc6)c(OC)cc5c3O2)-c2ccc(-c3ccc(C(C)(C)C)cc3)cc2C4(CC)CC)cc1 (centres unmarked) [Example 45 Formula (94)]",
    "A35/A23 *100 (%)": 71
  },
  {
    "COMPOUND": "CCCOc1ccc(C2(c3ccc(OC)cc3)C=Cc3c4c(c5cc(N(C)c6ccccc6)c(C)cc5c3O2)-c2ccc(C)cc2C4(CCCCOC)CCCCOC)cc1 (centres unmarked) [Example 17 Formula (79)]",
    "A35/A23 *100 (%)": 67
  },
  {
    "COMPOUND": "CCCOc1ccc(C2(c3ccc(OCCC)cc3)C=Cc3c4c(c5cc(N(c6ccc(C)cc6)c6ccc(C)cc6)c(OC)cc5c3O2)-c2ccccc2C4(CCCCOCOC)CCCCOCOC)cc1 [Example 14 Formula (71)]",
    "A35/A23 *100 (%)": 70
  }
]
